B1: Hairpin Ribozyme (parent)
chain: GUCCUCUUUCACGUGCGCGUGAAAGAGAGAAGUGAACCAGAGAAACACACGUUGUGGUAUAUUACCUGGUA

# Variants of: B1
# assay-comment: self-cleavage, relative activity (ratio to wild type); higher = more cleavage; co-transcriptional
measure: self-cleavage

Incoming: Read the entry U7C A49U and write its reported self-cleavage.
Outgoing: 0.135

Incoming: Write down self-cleavage measured for item U58G U60G
Outgoing: 0.731

Incoming: Let me know recorded self-cleavage for C48U C66U , thanks.
Outgoing: 0.194

Incoming: Answer with the recorded self-cleavage of U5A G13U only.
Outgoing: 0.302

Incoming: Give the reported value of self-cleavage for this record: C10U G69A
Outgoing: 0.405
